Could you please report measured Complete for the items listed next?
# Test system: NCI-H292 lung cancer cells
# assayOverview: FDA drug screening, complete media vs cholesterol-free media without statin (TABLE 1)
# Type: cell-based, human
# conditionInfo: NCI-H292 cells, complete media
Counter-ions that a name gives are not always drawn.
Give bare numbers.

Would you please look over these solved cases?
> print(dat)
                                   molecule             systemundertest  assayvalue
1  O=C(O[C@H]1CN2CCC1CC2)N1CCc2ccccc2[C@@H]1c1ccccc1 [Solifenacin (hydrochloride)]  NCI-H292 lung cancer cells      0.8222
2              Cc1c(Cl)cccc1Nc1ccccc1C(=O)O  NCI-H292 lung cancer cells      0.9309
3  CC(C(=O)O)c1ccc(C(=O)c2cccs2)cc1 (stereo not drawn)  NCI-H292 lung cancer cells      0.8283
4  C[C@@H]1CCO[C@H]2Cn3cc(C(=O)NCc4ccc(F)cc4F)c(=O)c(O)c3C(=O)N12  NCI-H292 lung cancer cells      0.7062
5  CCCCNC(=O)NS(=O)(=O)c1ccc(C)cc1 [Tolbutamide]  NCI-H292 lung cancer cells      0.8474
6  C=CC(=O)Nc1cc(Nc2nccc(-c3cn(C4CC4)c4ccccc34)n2)c(OC)cc1N(C)CCN(C)C  NCI-H292 lung cancer cells      0.2735
7  CC(C)Cc1ccc(C(C)C(=O)O)cc1 (stereo not drawn)  NCI-H292 lung cancer cells       1.058
8  CC(=O)NS(=O)(=O)c1ccc(NC(=O)c2ccccc2C(=O)O)cc1 [Phthalylsulfacetamide]  NCI-H292 lung cancer cells      0.9792

Next item in the queue.
Record CC1(C)C(C=C(Cl)Cl)C1C(=O)OCc1cccc(Oc2ccccc2)c1 (stereo not drawn) . Reported Complete: 0.9496
